- System: B16-F1 mouse melanoma cells
- Assay protocol: Cytotoxicity, resazurin metabolism assay, B16-F1
- Format: cell-based
- Condition notes: 48 h, mean ± SD
- Source text: Human lung carcinoma (A-549), human colon adenocarcinoma (DLD-1), human normal fibroblasts (WS1), mice melanoma (B16-F1), Human glioma (U-251), Human hepatocellular carcinoma (HEP G2), Human prostate adenocarcinoma (PC-3), Human ovary teratocarcinoma metastatic (PA-1), Human breast adenocarcinona metastatic (MDA-MB-231), Human breast adenocarcinoma (MCF-7) and Human malignant melanoma (SK-MEL-2) cell lines were obtained from the American Type Culture Collection (ATCC). […]
A collection of compounds and their measured IC50
Recorded metric: IC50 (µM)

Compound	Recorded metric	Obs value
C=C(C)[C@@H]1CC[C@]2(C)CC[C@]3(C)[C@H](CC[C@@H]4[C@@]5(C)CC[C@H](O[C@@H]6O[C@H](CO)[C@@H](O)[C@H](O)[C@H]6O)C(C)(C)[C@@H]5CC[C@]43C)[C@@H]12 [Compound 9, 3-O-6-D-Glucopyranoside of lupeol]	IC50	15
C=C(C)[C@@H]1CC[C@]2(C(=O)OC)CC[C@]3(C)[C@H](CC[C@@H]4[C@@]5(C)CC[C@H](O)C(C)(C)[C@@H]5CC[C@]43C)[C@@H]12 [Compound 7, Methyl Betulinate]	IC50	26
